// MFI lookup, one value per entry
system: T1, mouse GPRC5D (mouse, UniProt Q9JIL6 1-344)
T1 construct: whole, on cells; HEK293T-mGPRC5D cells; also called mGPRC5D; murine GPRC5D
T1 sequence (looked up): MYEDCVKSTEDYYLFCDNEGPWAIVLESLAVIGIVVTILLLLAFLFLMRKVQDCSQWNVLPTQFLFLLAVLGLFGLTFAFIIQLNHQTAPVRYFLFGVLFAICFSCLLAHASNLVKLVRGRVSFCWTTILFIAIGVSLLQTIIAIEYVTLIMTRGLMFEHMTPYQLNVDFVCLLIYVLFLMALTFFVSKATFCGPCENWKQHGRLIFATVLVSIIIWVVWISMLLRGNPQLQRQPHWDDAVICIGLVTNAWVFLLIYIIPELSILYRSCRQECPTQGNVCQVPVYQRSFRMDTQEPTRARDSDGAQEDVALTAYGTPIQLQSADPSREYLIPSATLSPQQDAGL
test.method.notes: FACS, HEK293T-mGPRC5D cells

Use the examples below as a reference point.
# binder, result
records = [
    ("82A1C10 (antibody, V domains shown, Mouse monoclonal antibody from hybridoma subclone) VH: QVQLKESGPGLVAPSQSLSITCTVSGFSLTNYAVTWVRQPPGKGLEWLGVIWGDGSTYYHSALVSRLSITKDNSRTQVLLKLNSLQTDDTARYYCAKGGYSPFAYWGQGTLVTVSA VL: DVVMTQTPLSLPVSLGDQASISCRSSQSLVHSNGNTYLHWYLQKPGQSPKLLIFKVSNRFSGVPDRFSGSGSGTDFTLKISRVEAEDLGVYFCSQNTHVPFTFGSGTKLEIK", 119),
    ("101B3G3 (antibody, V domains shown, Mouse monoclonal antibody from hybridoma subclone) VH: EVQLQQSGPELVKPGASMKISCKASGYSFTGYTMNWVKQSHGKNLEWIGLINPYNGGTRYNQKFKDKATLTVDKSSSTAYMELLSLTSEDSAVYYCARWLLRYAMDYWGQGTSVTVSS VL: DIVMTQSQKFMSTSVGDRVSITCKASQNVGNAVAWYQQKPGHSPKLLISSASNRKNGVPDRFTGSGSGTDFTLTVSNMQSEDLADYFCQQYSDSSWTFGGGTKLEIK", 1480),
]

// below: MFI requested for another binder
stdin: Could you share which MFI value was measured for 96C9E7 (antibody, V domains shown, Mouse monoclonal antibody from hybridoma subclone) VH: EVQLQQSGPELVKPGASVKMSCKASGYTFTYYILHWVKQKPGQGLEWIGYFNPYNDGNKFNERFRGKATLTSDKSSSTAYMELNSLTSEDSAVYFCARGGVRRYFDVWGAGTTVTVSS VL: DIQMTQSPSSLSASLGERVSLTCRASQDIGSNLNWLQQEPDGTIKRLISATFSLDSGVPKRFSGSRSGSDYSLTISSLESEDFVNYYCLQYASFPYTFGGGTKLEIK ?
stdout: 202
